The values you see were collected from patent US20260042755A1.

- system_name: GPR3 (Homo sapiens)
- Construct: expressed in transfected cells; host or cells: CHO cells
- Sequence (P46089 whole entry, species assumed): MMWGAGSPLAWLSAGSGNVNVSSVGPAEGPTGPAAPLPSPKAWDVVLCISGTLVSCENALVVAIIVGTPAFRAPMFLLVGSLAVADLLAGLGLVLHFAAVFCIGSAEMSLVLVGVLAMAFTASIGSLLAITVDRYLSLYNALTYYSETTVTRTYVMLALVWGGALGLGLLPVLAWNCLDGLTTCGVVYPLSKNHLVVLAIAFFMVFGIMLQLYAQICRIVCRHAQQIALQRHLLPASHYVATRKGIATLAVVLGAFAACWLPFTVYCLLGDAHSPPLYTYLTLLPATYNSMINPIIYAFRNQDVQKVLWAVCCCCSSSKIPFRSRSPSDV
- assay_overview: GPR3 antagonist functional cAMP assay (LANCE Ultra cAMP TR-FRET, CHO cells stably expressing GPR3)
- Assay type: cell-based
- condition_summary: CHO cells stably expressing GPR3, cAMP assay
pIC50: −log10 of the molar value.
attribute_measured: pIC50

Guide cases for pIC50, answers given:
[[record]]
compound = "CC(=O)N1Cc2nc(-c3cnn(C)c3)c(N3CCC(Oc4ccc(F)cc4F)CC3)nc2C(C)C1 (stereo not shown)"
val = "4.52 to 6.00"

[[record]]
compound = "CC(=O)N1CCc2nc(N3CCC(C(F)c4ccc(F)cc4F)CC3)c(-c3cnn(C)c3)nc2C1 (stereo not shown)"
val = "> 7.00"

[[record]]
compound = "CCc1cncc(-c2nc3c(nc2N2CCC(Oc4ccc(F)cc4F)CC2)CCN(C(C)=O)C3)n1"
val = "4.52 to 6.00"


Attention now shifts to the item below.
Entry CC(=O)N1CCc2nc(N3CCC(C(C)(O)c4ccc(F)cc4F)CC3)c(-c3cnn(C)c3)nc2C1 (stereo not shown) , pIC50 reported as 6.00 to 7.00
